Biological target: recombinant QR2 (Homo sapiens, UniProt P16083)
Sequence (P16083 whole entry): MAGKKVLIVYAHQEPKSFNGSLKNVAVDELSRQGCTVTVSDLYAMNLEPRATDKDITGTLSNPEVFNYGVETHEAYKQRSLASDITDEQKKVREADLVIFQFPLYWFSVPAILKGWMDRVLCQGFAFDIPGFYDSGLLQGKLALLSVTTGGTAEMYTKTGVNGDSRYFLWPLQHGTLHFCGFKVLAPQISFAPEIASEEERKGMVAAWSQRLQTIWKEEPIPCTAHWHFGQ
Test: Inhibition of QR2 activity in vitro (absorbance at 365 nm, NmeH/menadione)
Type: biochemical
Conditions: average of the determinations; read-out: IC50 Average
measure-name: IC50 (µM)

compound=Oc1ccc(CCNc2ccnc3cc(Cl)ccc23)cc1 quantitative_result=2.7

[a] COc1cc(NCc2ccccn2)c2ncccc2c1
[b] CCN(CC)CCC(C)Nc1cc(OC)cc2cccnc12 (stereo not drawn)
[c] CCN1CCC(Nc2cc(OC)cc3cccnc23)CC1
Prompt line: Hey, can you sort those compounds up there by IC50, smallest first? Order the labels as requested and list them.
Response line: a, c, b

[1] CCC(CC)(CCCN)CNc1cc(OC)cc2cccnc12
[2] COc1cc(NC2CCN(Cc3ccccc3)CC2)c2ncccc2c1
[3] O=[N+]([O-])c1ccc(NCCNc2cc(C(F)(F)F)nc3cc(C(F)(F)F)ccc23)nc1
Prompt line: Hey, can you sort those compounds up there by IC50, smallest first? Order the labels as requested and list them.
Response line: 2, 1, 3

[I] COc1ccc2c(ccc[n+]2[O-])c1 [Compound 9, 6-methoxyquinoline N-oxide]
[II] CC(O)CNCCNc1cc(C(F)(F)F)nc2c(C(F)(F)F)cccc12 (stereo not drawn)
Prompt line: Hey, which is lower on measured IC50, I or II ? Please respond with the label that marks your chosen entry.
Response line: I
(I: 4.9 µM, II: 98 µM)
